Measured values drawn from paper PMC9352680 for this set.

Molecular target: T1, PUF4 RNA-binding domain (Saccharomyces cerevisiae, UniProt P25339 537-888)
T1 sequence: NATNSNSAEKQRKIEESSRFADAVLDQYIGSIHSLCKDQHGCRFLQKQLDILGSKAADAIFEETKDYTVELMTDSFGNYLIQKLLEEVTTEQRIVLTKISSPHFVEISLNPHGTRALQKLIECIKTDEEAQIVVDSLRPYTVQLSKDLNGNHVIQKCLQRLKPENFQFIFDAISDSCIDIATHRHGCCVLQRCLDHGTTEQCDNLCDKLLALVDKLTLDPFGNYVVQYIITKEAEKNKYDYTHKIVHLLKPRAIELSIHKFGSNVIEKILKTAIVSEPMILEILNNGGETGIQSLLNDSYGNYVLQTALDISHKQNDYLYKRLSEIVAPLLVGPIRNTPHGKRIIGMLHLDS
Experiment: Mg; RNA-MaP; 20 mM Na-HEPES pH 7.4, 30 mM KOAc, 0.75 mM MgCl2, 0.1% Tween-20, 5% glycerol, 0.1 mg/mL BSA, 2 mM DTT; 25 C; 0.0125-409.6 nM protein
Settings: tags: N-His6-TEV cleaved; C-SNAP kept, Cy3B-labelled; label: tethered on chip by stalled RNA polymerase
Value Kind: Kd (nM)

INSERT INTO measurements (binder, value_kind, unit_descriptor, modifier, reported) VALUES
  ('Id_ii_S2_P5E.3_K5.2_C5.2_[C-2A]_H5.2_A5.1_F5.1_T5.2_[T11C]_[A12T] (ssRNA) RNA: UUUGAUUAAUAUGAUAUCGUUCUUUCUAUUAUAUUAUUACUUUCUUUCUCGAUAUCAUAUUAAUCUUU', 'Kd', 'nM', '=', 97.6),
  ('UCUCUUCAACACUAUAGAUCUCUU (ssRNA) [Id_ii_S1_P3E.4_K3.3_C3.2_[T-1A]_H3.3_A3.1_F3.1_T3.2_[T9G]]', 'Kd', 'nM', '>', 2300),
  ('ACAAACACUAUAUUAUUAAAACAAAC (ssRNA) [Id_ii_S3_P5E.3_K5.2_C5.2_[C-2A]_[T-1C]_H5.2_A5.1_F5.1_T5.2_[T11A]]', 'Kd', 'nM', '=', 485);
